Measured values drawn from the supplement of paper PMC10567573 for this set.

I'd appreciate it if you could supply protein stability index values for the items below.
B1: BEX1 (parent)
chain: EENMERIGEEVRQLMEKLREKQLS

Variants of: B1
test_summary: protein stability index of a GFP-peptide fusion (GPS, HEK-293T) (PSI 1-6); higher = more stable;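 also: lentivirally expressed fusions sorted by FACS into six bins by GFP to DsRed ratio, PSI derived from sequencing read proportions per bin multiplied by bin number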
study_conditions: c terminus: a fixed tail appended
Give bare numbers.

| mutation_label | protein stability index |
| --- | --- |
| E1C | 4.29 |
| G8C | 4.73 |
| M4L | 4.16 |

I would be grateful if you could provide protein stability index for each of the following entries.
1. M15E
2. R6T
3. L14H
4. R12C
5. L18P
6. E10K
7. Q13W

4.89
4.85
5.03
4.43
5.86
3.89
3.37
